B1: library; numbered along this chain (parent)
chain: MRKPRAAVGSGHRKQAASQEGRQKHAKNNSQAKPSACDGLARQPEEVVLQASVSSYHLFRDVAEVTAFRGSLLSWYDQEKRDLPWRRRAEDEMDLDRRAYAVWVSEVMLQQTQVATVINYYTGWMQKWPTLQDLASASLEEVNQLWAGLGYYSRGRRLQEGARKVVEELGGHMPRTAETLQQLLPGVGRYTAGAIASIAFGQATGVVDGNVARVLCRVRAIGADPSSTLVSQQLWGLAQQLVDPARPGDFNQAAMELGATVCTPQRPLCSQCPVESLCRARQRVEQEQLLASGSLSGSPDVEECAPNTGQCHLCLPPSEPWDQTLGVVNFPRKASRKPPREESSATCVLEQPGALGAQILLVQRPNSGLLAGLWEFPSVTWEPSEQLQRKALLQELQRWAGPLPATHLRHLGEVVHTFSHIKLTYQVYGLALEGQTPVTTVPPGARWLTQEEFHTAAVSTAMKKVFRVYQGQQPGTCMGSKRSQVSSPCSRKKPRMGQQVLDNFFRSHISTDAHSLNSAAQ

- Variants of: B1
- measurement protocol: 8OG:A repair function score (normalized; synonymous = 0, nonsense = -1) (normalized log-likelihood score); higher = more repair activity (WT-like);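 further: cells sorted at 72 h after reporter transfection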
- cond: with 8OG:A DNA repair reporter (GFP) in HEK-293 MUTYH KO cells
# cutoff -0.2 applies to 8OG:A repair function score; >= gives class 1, < gives class 0

Study these solved cases before continuing.
mutation key	cat
V211Y	class 0
K3Y	class 1
G150E	class 0
Q43A	class 1
E275D	class 1
A253H	class 0
P494L	class 1
G434Y	class 1
P383A	class 1
Q470Y	class 1

Query: Say whether D249F shows 8OG:A repair function score of -0.2 or more.
Reply: class 0

Query: Check this variant for 8OG:A repair function score at or above -0.2: L131Q
Reply: class 0

Query: Form field: 8OG:A repair function score at least -0.2? Entry: V230P
Reply: class 0

Query: # check: 8OG:A repair function score of P316G is greater than or equal to -0.2
Reply: class 1

Query: Please check the record A371T and state if its 8OG:A repair function score is at or above -0.2.
Reply: class 0

Query: Check if 8OG:A repair function score >= -0.2 (inclusive). Item: A135E
Reply: class 0

Query: State whether the measured 8OG:A repair function score reaches -0.2, counting equality as reaching it, for Q126G
Reply: class 1

Query: API: above_or_equal(metric=8OG:A repair function score, cutoff=-0.2) for item H420V
Reply: class 0

Query: Textbook exercise: given the entry A291I , state whether its 8OG:A repair function score is greater than or equal to -0.2.
Reply: class 1

Query: Decide: 8OG:A repair function score of S487Y >= -0.2?
Reply: class 1

Query: Check the entry E350V : does 8OG:A repair function score equal or exceed -0.2?
Reply: class 1

Query: Has Y190S a recorded 8OG:A repair function score greater than or equal to -0.2?
Reply: class 0

Query: Tell me whether 8OG:A repair function score is at least -0.2 here: W399E
Reply: class 0

Query: Check the entry P383E : does 8OG:A repair function score equal or exceed -0.2?
Reply: class 1

Query: Given Q265K , state whether its 8OG:A repair function score is at least -0.2.
Reply: class 1
